test_target: T1, recombinant human CD19 (labeled CD19) (human, UniProt P15391 20-291, limits assumed, fluorescent label, kind and site not stated)
T1 construct: The antigen titrated on yeast is only called 'labeled CD19'; also called fluorescently tagged antigen
T1 sequence (looked up): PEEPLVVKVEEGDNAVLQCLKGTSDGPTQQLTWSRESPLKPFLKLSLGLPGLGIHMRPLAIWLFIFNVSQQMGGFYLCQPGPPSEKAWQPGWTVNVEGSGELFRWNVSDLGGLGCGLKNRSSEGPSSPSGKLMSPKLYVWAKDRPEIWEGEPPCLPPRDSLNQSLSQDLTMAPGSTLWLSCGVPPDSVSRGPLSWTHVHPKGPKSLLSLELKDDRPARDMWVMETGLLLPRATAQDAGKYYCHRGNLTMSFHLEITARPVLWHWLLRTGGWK
run_description: flow cytometry of yeast-displayed scFv titrated with decreasing amounts of labeled CD19
measurement_label: EC50

[
  {
    "binder": "human anti-CD19 ScFv binder M19217-38 (scFv, also called ScFv7) scFv: EVQLVQSGAEVKRPGASVKVSCKASGYTFTSYYMHWVRQAPGRGLEWMGLINPSGGSTSYAQEFQGRVTMTRDMSTSTVYMELSSLRSEDTAVYYCARSDRGISATDAFDIWGQGTMVTVSSGGGGSGGGGSGGGGSQSVLTQPPSVSVAPGQMAKITCGGSDIGNKNVHWYQQKPGQAPVLVVYDDYNRPSGIPERFSGSNSGDAATLTISTVEVGDEADYFCQVWDGSGDPYWVFGGGTQLTDLG",
    "EC50": "< 0.01 µg/mL"
  }
]

Next up:
-- ask Return reported EC50; argument: human anti-CD19 ScFv binder M19217-2 (scFv, also called ScFv3) scFv: EVQLVQSGAEVKKPGASVKVSCKASGYTFTSYYMHWVRQAPGQGFEWMGLINPSGSSTSYAQKFQGRVTMTRDTSTSTVYMELSNLRSEDTAVYYCARSDRGITATDAFDIWGQGTMVTVSSGGGGSGGGGSGGGGSQSVLTQPPSVPVAPGQTAKIICGGSDIGNKNVHWYQQKPGQAPVLVVYDDYDRPSGIPERFSGSNSGDAATLTISTVEVGDEADYFCQVWDGSGDPYWVFGGGTQLTVLG
-- reply < 0.01 µg/mL
